# Tested on: Plasmodium falciparum
# assayProcedure: Antimalarial activity against CQ, MFQ-resistant Plasmodium falciparum TM91C235 clone Southeast asian isolate assessed as inhibition of parasite proliferation by MSF assay
# Type: functional, organism-based
IC50 values for the compounds below.

# testSmiles, assayTarget, IC50, nM
rows = [
    ("CC(=O)O[C@H]1C[C@H]2[C@@H]([C@H](OC(C)=O)C[C@@H]3CC(=O)CC[C@@]32C)[C@@H]2CC[C@H]([C@H](C)CCCNCCNc3ccnc4cc(Cl)ccc34)[C@@]12C", "Plasmodium falciparum", 17.6),
    ("CC(=O)O[C@H]1C[C@H]2[C@@H]([C@H](OC(C)=O)C[C@@H]3C[C@H](O)CC[C@@]32C)[C@@H]2CC[C@H]([C@H](C)CCCNCCCNc3ccnc4cc(Cl)ccc34)[C@@]12C", "Plasmodium falciparum", 11.9),
    ("CC(=O)O[C@H]1C[C@H]2[C@@H]([C@H](OC(C)=O)C[C@@H]3C[C@H](NC(=O)OC(C)(C)C)CC[C@@]32C)[C@@H]2CC[C@H]([C@H](C)CCCN(CCCNc3ccnc4cc(Cl)ccc34)CCC[C@@H](C)[C@H]3CC[C@H]4[C@@H]5[C@H](OC(C)=O)C[C@@H]6C[C@H](NC(=O)OC(C)(C)C)CC[C@]6(C)[C@H]5C[C@H](OC(C)=O)[C@]34C)[C@@]12C", "Plasmodium falciparum", 369),
    ("CC(=O)O[C@H]1C[C@H]2[C@@H]([C@H](OC(C)=O)C[C@@H]3C[C@H](N(C)C)CC[C@@]32C)[C@@H]2CC[C@H]([C@H](C)CCCNCCNc3ccnc4cc(Cl)ccc34)[C@@]12C", "Plasmodium falciparum", 32.4),
    ("CC(=O)O[C@H]1C[C@H]2[C@@H]([C@H](OC(C)=O)C[C@@H]3CC(=O)CC[C@@]32C)[C@@H]2CC[C@H]([C@H](C)CCCNCCCCCCNc3ccnc4cc(Cl)ccc34)[C@@]12C", "Plasmodium falciparum", 51.6),
    ("CC(=O)O[C@H]1C[C@H]2[C@@H]([C@H](OC(C)=O)C[C@@H]3C[C@H](NS(C)(=O)=O)CC[C@@]32C)[C@@H]2CC[C@H]([C@H](C)CCCNCCNc3ccnc4cc(Cl)ccc34)[C@@]12C", "Plasmodium falciparum", 26.4),
    ("CC(=O)O[C@@H]1CC[C@@]2(C)[C@@H](C1)C[C@@H](OC(C)=O)[C@@H]1[C@@H]2C[C@H](OC(C)=O)[C@]2(C)[C@@H]([C@H](C)CCCNCCCCCCNc3ccnc4cc(Cl)ccc34)CC[C@@H]12", "Plasmodium falciparum", 104),
    ("CC(=O)O[C@H]1C[C@H]2[C@@H]([C@H](OC(C)=O)C[C@@H]3C[C@H](N(C)C)CC[C@@]32C)[C@@H]2CC[C@H]([C@H](C)CCCNCCCNc3ccnc4cc(Cl)ccc34)[C@@]12C", "Plasmodium falciparum", 88.7),
]

###

# Tested on: Liver microsome
# assayProcedure: Half life in human liver microsomes
# Format: ADME
# setupConditions: microsomes
Friendly reminder: t1/2 below 10 min is t, at or above is f.

# testSmiles, assayTarget, cat
measured = [
    ("CC(=O)O[C@H]1C[C@H]2[C@@H]([C@H](OC(C)=O)C[C@@H]3CC(=O)CC[C@@]32C)[C@@H]2CC[C@H]([C@H](C)CCCNCCNc3ccnc4cc(Cl)ccc34)[C@@]12C", "Liver microsome", "t"),
    ("CC(=O)O[C@H]1C[C@H]2[C@@H]([C@H](OC(C)=O)C[C@@H]3C[C@H](NS(C)(=O)=O)CC[C@@]32C)[C@@H]2CC[C@H]([C@H](C)CCCNCCCNc3ccnc4cc(Cl)ccc34)[C@@]12C", "Liver microsome", "f"),
    ("CC(=O)O[C@H]1C[C@H]2[C@@H]([C@H](OC(C)=O)C[C@@H]3C[C@H](N(C)C)CC[C@@]32C)[C@@H]2CC[C@H]([C@H](C)CCCN(C)CCNc3ccnc4cc(Cl)ccc34)[C@@]12C", "Liver microsome", "f"),
    ("CC(=O)O[C@H]1C[C@H]2[C@@H]([C@H](OC(C)=O)C[C@@H]3C[C@H](NS(C)(=O)=O)CC[C@@]32C)[C@@H]2CC[C@H]([C@H](C)CCCN(C)CCNc3ccnc4cc(Cl)ccc34)[C@@]12C", "Liver microsome", "f"),
    ("CC(=O)O[C@H]1C[C@H]2[C@@H]([C@H](OC(C)=O)C[C@@H]3C[C@H](NS(C)(=O)=O)CC[C@@]32C)[C@@H]2CC[C@H]([C@H](C)CCCN(C)CCCNc3ccnc4cc(Cl)ccc34)[C@@]12C", "Liver microsome", "f"),
    ("CC(=O)O[C@H]1C[C@H]2[C@@H]([C@H](OC(C)=O)C[C@@H]3CC(=O)CC[C@@]32C)[C@@H]2CC[C@H]([C@H](C)CCCNCCCNc3ccnc4cc(Cl)ccc34)[C@@]12C", "Liver microsome", "f"),
    ("CC(=O)O[C@H]1C[C@H]2[C@@H]([C@H](OC(C)=O)C[C@@H]3C[C@H](O)CC[C@@]32C)[C@@H]2CC[C@H]([C@H](C)CCCNCCCNc3ccnc4cc(Cl)ccc34)[C@@]12C", "Liver microsome", "t"),
    ("CC(=O)O[C@H]1C[C@H]2[C@@H]([C@H](OC(C)=O)C[C@@H]3C[C@H](O)CC[C@@]32C)[C@@H]2CC[C@H]([C@H](C)CCCNCCNc3ccnc4cc(Cl)ccc34)[C@@]12C", "Liver microsome", "t"),
]

###

# assayTarget: UniProtKB P0DPI0
# Sequence (P0DPI0 2-448 limits assumed): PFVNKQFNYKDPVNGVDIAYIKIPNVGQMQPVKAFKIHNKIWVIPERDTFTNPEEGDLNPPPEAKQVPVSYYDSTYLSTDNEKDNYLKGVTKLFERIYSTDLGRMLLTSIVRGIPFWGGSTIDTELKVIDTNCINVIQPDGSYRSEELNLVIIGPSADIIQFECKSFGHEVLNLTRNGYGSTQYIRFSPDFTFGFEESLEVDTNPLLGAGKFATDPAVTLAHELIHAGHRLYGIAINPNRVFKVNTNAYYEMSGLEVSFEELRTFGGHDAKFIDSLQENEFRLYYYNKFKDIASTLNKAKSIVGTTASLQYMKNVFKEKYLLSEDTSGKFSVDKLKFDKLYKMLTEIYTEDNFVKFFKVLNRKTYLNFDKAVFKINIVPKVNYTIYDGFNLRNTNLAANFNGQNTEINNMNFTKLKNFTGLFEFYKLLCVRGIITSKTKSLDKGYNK
# assayProcedure: Inhibition of Clostridium botulinum recombinant BoNT/A light chain using N-terminal acetylated, C-terminal aminated SNAP-25 (187-203) as substrate by reverse-phase HPLC analysis
Ki values for the compounds below.

# testSmiles, assayTarget, unitAnnotation, Ki
records = [
    ("CC(=O)O[C@@H]1CC[C@@]2(C)[C@@H](C1)C[C@@H](OC(C)=O)[C@@H]1[C@@H]2C[C@H](OC(C)=O)[C@]2(C)[C@@H]([C@H](C)CCCNCCCNc3ccnc4cc(Cl)ccc34)CC[C@@H]12", "UniProtKB P0DPI0", "µM", 5.67),
    ("CC(=O)O[C@H]1C[C@H]2[C@@H]([C@H](OC(C)=O)C[C@@H]3C[C@H](N)CC[C@@]32C)[C@@H]2CC[C@H]([C@H](C)CCCNCCNc3ccnc4cc(Cl)ccc34)[C@@]12C", "UniProtKB P0DPI0", "µM", 3.22),
]

###

# System: Plasmodium falciparum
# assayProcedure: Resistance index, ratio of IC90 for CQ-resistant, MFQ-susceptible Plasmodium falciparum W2 clone Indochina 1 isolate to IC90 for CQ, MFQ-susceptible Plasmodium falciparum D6 clone Sierra 1/UNC isolate
# Format: functional
readoutType: Ratio

# testSmiles, observedValue
records = [
    ("CC(=O)O[C@H]1C[C@H]2[C@@H]([C@H](OC(C)=O)C[C@@H]3C[C@H](N(C)C)CC[C@@]32C)[C@@H]2CC[C@H]([C@H](C)CCCN(C)CCNc3ccnc4cc(Cl)ccc34)[C@@]12C", 0.51),
    ("CC(=O)O[C@H]1C[C@H]2[C@@H]([C@H](OC(C)=O)C[C@@H]3C[C@H](NS(C)(=O)=O)CC[C@@]32C)[C@@H]2CC[C@H]([C@H](C)CCCN(C)CCCNc3ccnc4cc(Cl)ccc34)[C@@]12C", 0.98),
    ("CC(=O)O[C@H]1C[C@H]2[C@@H]([C@H](OC(C)=O)C[C@@H]3CC(=O)CC[C@@]32C)[C@@H]2CC[C@H]([C@H](C)CCCNCCNc3ccnc4cc(Cl)ccc34)[C@@]12C", 3.09),
    ("CC(=O)O[C@H]1C[C@H]2[C@@H]([C@H](OC(C)=O)C[C@@H]3C[C@H](NC(=O)OC(C)(C)C)CC[C@@]32C)[C@@H]2CC[C@H]([C@H](C)CCCNCCNc3ccnc4cc(Cl)ccc34)[C@@]12C", 0.42),
    ("C[C@@H]1CC[C@H]2[C@@H](C)C(=O)O[C@@H]3O[C@@]4(C)CC[C@@H]1[C@]32OO4", 0.9),
    ("CC(=O)O[C@H]1C[C@H]2[C@@H]([C@H](OC(C)=O)C[C@@H]3C[C@H](N(C)C)CC[C@@]32C)[C@@H]2CC[C@H]([C@H](C)CCCNCCCNc3ccnc4cc(Cl)ccc34)[C@@]12C", 0.58),
    ("CC(=O)O[C@H]1C[C@H]2[C@@H]([C@H](OC(C)=O)C[C@@H]3C[C@H](N)CC[C@@]32C)[C@@H]2CC[C@H]([C@H](C)CCCN(C)CCNc3ccnc4cc(Cl)ccc34)[C@@]12C", 0.84),
    ("CC(=O)O[C@H]1C[C@H]2[C@@H]([C@H](OC(C)=O)C[C@@H]3C[C@H](O)CC[C@@]32C)[C@@H]2CC[C@H]([C@H](C)CCCNCCNc3ccnc4cc(Cl)ccc34)[C@@]12C", 2.08),
    ("CC(=O)O[C@H]1C[C@H]2[C@@H]([C@H](OC(C)=O)C[C@@H]3C[C@H](N)CC[C@@]32C)[C@@H]2CC[C@H]([C@H](C)CCCN(CCCNc3ccnc4cc(Cl)ccc34)CCC[C@@H](C)[C@H]3CC[C@H]4[C@@H]5[C@H](OC(C)=O)C[C@@H]6C[C@H](N)CC[C@]6(C)[C@H]5C[C@H](OC(C)=O)[C@]34C)[C@@]12C", 1.29),
]
